I'd appreciate it if you could supply log10 Ki values for the items below.
assayedSystem: human recombinant 5-HT2C receptor (Homo sapiens, UniProt P28335)
Construct: expressed in transfected cells; host or cells: Jump-In HEK cells (membrane preparation)
protocolDetails: Test Example 2: 5-HT2C receptor binding inhibition test ([3H]-Mesulergine; non-specific ligand Serotonin HCl)
testConditions: human serotonin 5-HT2C receptor binding activity
Please interpret these as log10 of Ki where Ki is in nM.

In: // lookup log10 Ki for COCc1ccc(-c2cnc(Nc3cc(-c4c(C)nc(COC)nc4C)c(OCCO)cn3)c(Cl)c2)cc1 [Compound I-264]
Out: -0.15

In: Need log10 Ki, item Cc1cc(OC(F)(F)F)cnc1Nc1cc(-c2c(Br)cnn2C)c(OCCO)cn1 [Compound I-179]
Out: -0.53

In: Returns the measured log10 Ki for the input compound. Input: CCCc1nc(C)c(-c2cc(Nc3ncc(C(F)(F)F)cc3Cl)ncc2OCCO)c(C)n1 [Compound I-222]
Out: 0.28

In: I'd like to know its log10 Ki. The compound in question is Cc1nc(C)c(-c2cc(Nc3ccc(-c4ccc(C(F)(F)F)cc4)cn3)ncc2OCCO)c(C)n1 [Compound I-303]
Out: -0.56

In: Which log10 Ki reading was recorded for the compound Cn1ncc(Br)c1-c1cc(Nc2ncc(C(F)(F)F)cc2F)c(Cl)cc1OCCO [Compound I-399] ?
Out: -0.07

In: Recorded log10 Ki for Cn1ncc(Cl)c1-c1cc(Nc2ncc(OC(F)(F)F)cc2F)ncc1OCCO [Compound I-305] , please?
Out: -0.23

In: I would be grateful if you could share the reported log10 Ki for Cc1cc(C#N)ccc1Nc1ncc(OCCO)c(-c2c(Br)cnn2C)n1 [Compound I-355] .
Out: 0.91

In: Look up log10 Ki for this compound: Cn1ncc(F)c1-c1cc(Nc2ncc(Cl)cc2F)c(F)cc1OCCO [Compound I-171]
Out: 0.76

In: Return reported log10 Ki; argument: COCc1nc(C)c(-c2cc(Nc3ncc(OCC(F)(F)C(F)F)cc3Cl)ncc2OCCO)c(C)n1 [Compound I-333]
Out: 0.62

In: # lookup: log10 Ki of Cc1cnn(Cc2nc(C)c(-c3cc(Nc4ncc(C(F)(F)F)cc4Cl)ncc3OCCO)c(C)n2)c1 [Compound I-379]
Out: -0.10

In: Can you share its log10 Ki? I mean this compound: OCCOc1cnc(Nc2ncc(C(F)(F)F)cc2F)cc1-c1cccnc1C(F)F [Compound I-366]
Out: 1.77

In: Item under review: Cn1ncc(Br)c1-c1nc(Nc2ccc(C#N)cc2)ncc1OCCO [Compound I-352] . Reported log10 Ki?
Out: 0.78

In: Given Cn1ncc(Cl)c1-c1cc(Nc2ncc(C(F)(F)F)cn2)c(Cl)cc1OCCO [Compound I-410] , state its recorded log10 Ki.
Out: 0.60

In: I'd like to know its log10 Ki. The compound in question is Cn1ncc(Br)c1-c1cc(Nc2ncc(OC(F)(F)F)cc2F)ncc1OCCO [Compound I-287]
Out: -0.58

In: Field request: log10 Ki | item: Cn1ncc(Br)c1-c1nc(Nc2ccc(Cl)c(F)c2)ncc1OCCO [Compound I-345]
Out: 0.49

In: Item under review: Cn1ncc(Br)c1-c1cc(Nc2ncc(OC(F)(F)F)cn2)cnc1OCCO [Compound I-269] . Reported log10 Ki?
Out: 0.45

In: Requested read-out: log10 Ki. Entry: COCc1nc(C)c(-c2cc(Nc3ncc(-c4ccc(F)c(F)c4)cc3Cl)ncc2OCCO)c(C)n1 [Compound I-254]
Out: -0.56

---

I'd be grateful if you could share measured pKi for these entries.
assayedSystem: human recombinant 5-HT2C receptor (Homo sapiens, UniProt P28335)
Construct: expressed in transfected cells; host or cells: Jump-In HEK cells (membrane preparation)
Sequence (P28335 33-458): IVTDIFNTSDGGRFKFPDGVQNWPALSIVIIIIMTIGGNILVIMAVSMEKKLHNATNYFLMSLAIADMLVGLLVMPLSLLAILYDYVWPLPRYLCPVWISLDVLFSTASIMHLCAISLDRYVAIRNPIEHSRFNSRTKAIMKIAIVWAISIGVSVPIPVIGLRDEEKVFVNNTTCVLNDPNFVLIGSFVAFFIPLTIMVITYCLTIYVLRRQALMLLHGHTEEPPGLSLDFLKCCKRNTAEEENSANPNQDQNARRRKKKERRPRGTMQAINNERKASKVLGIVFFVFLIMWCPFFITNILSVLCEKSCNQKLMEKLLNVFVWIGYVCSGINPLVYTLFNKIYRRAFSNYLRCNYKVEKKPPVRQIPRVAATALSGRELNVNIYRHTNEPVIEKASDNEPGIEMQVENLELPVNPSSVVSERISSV
protocolDetails: Test Example 2: 5-HT2C receptor binding inhibition test ([3H]-Mesulergine; non-specific ligand Serotonin HCl)
testConditions: human serotonin 5-HT2C receptor binding activity
Experimental: The Kd value is calculated when the lot of the cell membrane is changed. […] The radioactivity of [^3H]-Mesulergine bound to the 5-HT2C receptor is measured using Microbeta2 (PerkinElmer) at a measurement time of 1 min/well. The Saturation curve is drawn from the measured value, and the Kd value is calculated from the slope of the Scatchard Plot. […]
pKi here is simply -log10 of the concentration when that concentration is written in mol/L.

In: Would you mind telling me what pKi value was observed for COCc1nc(C)c(-c2cc(Nc3ccc(C(F)(F)F)c(C)n3)ncc2OCCO)c(C)n1 [Compound I-248] ?
Out: 8.32

In: What measured pKi goes with COCc1nc(C)c(-c2cc(Nc3ncc(-n4ccc(C(F)(F)F)n4)cc3Cl)ncc2OCCO)c(C)n1 [Compound I-325] ?
Out: 8.93

In: What does the record list as pKi for O=C1NCCc2c1cccc2-c1cc(Nc2ncc(C(F)(F)F)cc2F)ncc1OCCO [Compound I-227] ?
Out: 7.57

In: pKi lookup needed for COCc1nc(C)c(-c2cc(Nc3ncc(Br)cc3Cl)ncc2OCCO)c(C)n1 [Compound I-323] , thanks.
Out: 8.55

In: Field request: pKi | item: COCc1nc(C)c(-c2cc(Nc3ncc(-c4ncc(Cl)cn4)cc3Cl)ncc2OCCO)c(C)n1 [Compound I-239]
Out: 8.87

---

assayedSystem: human recombinant 5-HT2A receptor (Homo sapiens)
Construct: expressed in transfected cells; host or cells: Jump-In HEK cells (membrane preparation)
Sequence (P28223 whole entry): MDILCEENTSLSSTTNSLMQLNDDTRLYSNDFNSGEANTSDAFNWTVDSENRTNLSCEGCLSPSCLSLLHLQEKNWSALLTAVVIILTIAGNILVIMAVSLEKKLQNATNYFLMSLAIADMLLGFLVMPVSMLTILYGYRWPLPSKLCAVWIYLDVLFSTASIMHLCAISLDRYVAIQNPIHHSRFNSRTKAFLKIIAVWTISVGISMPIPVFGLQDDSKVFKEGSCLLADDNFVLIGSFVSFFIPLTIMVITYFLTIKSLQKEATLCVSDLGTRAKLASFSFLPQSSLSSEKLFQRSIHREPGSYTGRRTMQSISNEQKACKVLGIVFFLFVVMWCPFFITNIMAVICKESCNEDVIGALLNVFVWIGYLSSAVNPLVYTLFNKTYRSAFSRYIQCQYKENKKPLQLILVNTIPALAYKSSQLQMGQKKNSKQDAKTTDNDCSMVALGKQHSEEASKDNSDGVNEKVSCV
protocolDetails: Test Example 1-2: 5-HT2A receptor binding inhibition test ([3H]-Ketanserin; non-specific ligand Ketanserin)
testConditions: [3H]-Ketanserin; non-specific binding with 500 µmol/L Ketanserin; room temperature (25°C), 1.5 hours; read-out: h 5-HT2A Ki
recordedEndpoint: pKi
API: returns pKi as number; meaning -log10 of concentration in mol/L.

In: Form: Entry = Cn1ncc(Br)c1-c1cc(Nc2ccc(Cl)cn2)c(Cl)cc1OCCO [Compound I-401] | System = human recombinant 5-HT2A receptor (Homo sapiens) | pKi = ____
Out: 9.68

In: API: value(readout=pKi, system=human recombinant 5-HT2A receptor (Homo sapiens)) for record Cn1ncc(Br)c1-c1cc(Nc2ncc(Cl)s2)ccc1OCCO [Compound I-040]
Out: 9.76

In: Please provide the recorded pKi for O=C1OCc2c1cccc2-c1cc(Nc2ncc(C(F)(F)F)cc2F)ncc1OCCO [Compound I-360] , tested on human recombinant 5-HT2A receptor (Homo sapiens).
Out: 8.91

In: Lookup: pKi / human recombinant 5-HT2A receptor (Homo sapiens) / Cc1cc(OC(F)(F)F)cnc1Nc1cc(-c2c(C)cnn2C)c(OCCO)cn1 [Compound I-180]
Out: 9.46

In: What value of pKi on human recombinant 5-HT2A receptor (Homo sapiens) does Cn1ncc(Br)c1-c1cc(Nc2ccc(C(F)(F)F)cn2)c(Cl)cc1OCCO [Compound I-400] have?
Out: 9.47

In: Give the reported pKi for Cn1cnc(Cl)c1-c1cc(Nc2ncc(C(F)(F)F)cc2F)ccc1OCCO [Compound I-095] (system: human recombinant 5-HT2A receptor (Homo sapiens)).
Out: 9.43

In: # query: pKi | item Cn1ncc(Br)c1-c1cc(Nc2cc(C(F)(F)F)ccn2)ccc1OCCO [Compound I-047] | system: human recombinant 5-HT2A receptor (Homo sapiens)
Out: 9.68

In: Provide value of pKi for this record tested with human recombinant 5-HT2A receptor (Homo sapiens): OCCOc1cnc(Nc2ncc(C(F)(F)F)cc2F)cc1-c1cccnc1C(F)F [Compound I-366]
Out: 8.66

In: Hi! What's the reported pKi for Cn1ncc(Br)c1-c1cc(Nc2ncc(Cl)cc2F)cnc1OCCO [Compound I-117] on human recombinant 5-HT2A receptor (Homo sapiens)?
Out: 9.62

In: Request - read-out pKi | tested on human recombinant 5-HT2A receptor (Homo sapiens) | compound CCc1cnn(C)c1-c1cc(Nc2ncc(C(F)(F)F)cc2F)ccc1OCCO [Compound I-055]
Out: 9.40

In: Tell me reported pKi for Cn1ncc(Br)c1-c1nc(Nc2ccc(Cl)cc2)ncc1OCCO [Compound I-339] , tested with human recombinant 5-HT2A receptor (Homo sapiens).
Out: 9.66

In: Form field - read-out: pKi; system: human recombinant 5-HT2A receptor (Homo sapiens); submitted item: Cc1nc(C)c(-c2cc(Nc3ccc(-c4ccc(C(F)(F)F)cn4)cn3)ncc2OCCO)c(C)n1 [Compound I-314]
Out: 9.04

In: Request - read-out pKi | tested on human recombinant 5-HT2A receptor (Homo sapiens) | compound CCn1ncc(Br)c1-c1cc(Nc2ncc(C(F)(F)F)cc2F)ccc1OCCO [Compound I-066]
Out: 9.65

In: Give recorded pKi with human recombinant 5-HT2A receptor (Homo sapiens) for the following compound: Cn1ncc(Br)c1-c1cc(Nc2nc3c(Cl)cccc3s2)ccc1OCCO [Compound I-071]
Out: 9.42

In: Can you look up pKi on human recombinant 5-HT2A receptor (Homo sapiens) for COCc1nc(C)c(-c2cc(Nc3ccc(-c4ccc(Cl)cc4)cn3)ncc2OCCO)c(C)n1 [Compound I-273] ?
Out: 9.51

In: Lab note: need pKi for Cn1ncc(Br)c1-c1cc(Nc2ncc(OC(F)(F)F)cn2)ncc1OCCO [Compound I-296] on human recombinant 5-HT2A receptor (Homo sapiens), anyone have it?
Out: 9.46

In: Query the reported pKi for human recombinant 5-HT2A receptor (Homo sapiens); item: Cn1cnc(Br)c1-c1cc(Nc2ncc(F)cc2F)ccc1OCCO [Compound I-032]
Out: 9.13
